The entries below pair compounds with pIC50 values for Coagulation factor XI (Homo sapiens, UniProt P03951), as found in several publications.
In plain terms, pIC50 is the concentration in mol/L turned into minus its base-10 logarithm.

Some entries whose results are on file:
1) COCC(c1ccccc1)n1cc(C(=O)N2CCC[C@@]3(C2)OC(=O)Nc2ccc(Cl)c(F)c23)cn1 (stereo partly shown) : 5.81
2) N#Cc1cc(N2CCC2)ncc1Cn1cc(NC(=O)c2cncc(-c3c(C(F)F)ccc(Cl)c3F)n2)cn1 : 5.98

Turning now to a further record.
stdin: For Coagulation factor XI (Homo sapiens, UniProt P03951), give the measured pIC50 of the entry O=C(NC12CCC(C(=O)O)(CC1)CC2)C1CCc2cc(-c3cc(Cl)ccc3-n3cnnn3)c[n+]([O-])c21 (stereo not shown)
stdout: 5.70

* * *

Here, molecules appear alongside pIC50 reported for Coagulation factor XI (Homo sapiens, UniProt P03951) in the literature.
API: returns pIC50 as number; meaning -log10 of concentration in mol/L.

Field: example entries. Status: answers known.
1. Nc1c(C(=O)N2CCC[C@@]3(C2)OC(=O)Nc2ccc(Cl)c(F)c23)cnn1-c1ccccc1Br : 6.06
2. CC[C@@H](C(=O)Nc1ccc(C(N)=O)c(F)c1)n1cc2c(cc1=O)-c1cc(Cl)ccc1C[C@@H](C)O[C@H]2C (single isomer, unassigned) : 8.46
3. NCc1ccc(Cl)cc1-c1ccc(C(CC2CC2)C(=O)Nc2ccc(C(=O)O)cc2)[n+]([O-])c1 (racemic) : 7.51
4. CO[C@H]1CC[C@H](CC(C(=O)Nc2ccc3[nH]c(=O)[nH]c3c2)n2cc3c(cc2=O)-c2cc(Cl)ccc2CC2(CC2)NC3=O)CC1 (stereo partly drawn) : 7.74
5. COc1nn(C(Cc2ccc(C)cc2)C(=O)Nc2ccc(C(=O)O)cc2)c(=O)cc1-c1cc(Cl)ccc1C(C)=O (stereo not drawn) : 7.62
6. O=C(O)c1ccc(NC(=O)[C@H](CC2CCC2)c2ccc(-c3c(C(F)F)ccc(Cl)c3F)c[n+]2[O-])cc1 (mixture of isomers) : 9.44
7. Cc1ncc(-c2c(C(F)F)ccc(Cl)c2F)nc1C(=O)Nc1cnn(Cc2cnc(N3C[C@H]4C[C@H]4C3=O)c(C)n2)c1 : 6.12
8. NC(=O)c1ccc(NC(=O)[C@H](C[C@@H]2CCCCO2)n2cc3c(cc2=O)-c2cc(Cl)ccc2C[C@@H](C(F)F)OC3)cc1F (single isomer, unassigned) : 8.33

stdin: Provide one value: measured pIC50 of CCC(C1CCOCC1)n1ncc(C(=O)N2CCC[C@@]3(C2)OC(=O)Nc2ccc(Cl)c(F)c23)c1N (single isomer, unassigned)
stdout: 8.70

stdin: Report pIC50 for `CCOC(=O)c1[nH]c2nc1-c1ccc(NC(=O)OC)cc1NC(=O)C(C)(C)CCC[C@@H]2c1ccc(-c2cc(F)ccc2OC(F)F)c[n+]1[O-]`
stdout: 9.59

* * *

pIC50: −log10 of the molar value.
Compiled literature pIC50, tested on Coagulation factor XI (Homo sapiens, UniProt P03951).

1. CC[C@H](NC(=O)N1C(=O)[C@H](Cc2ccnc(N)c2)[C@H]1C(=O)N(C)c1ccncc1)c1ccccc1C : > 8.00
2. O=C(O)c1scc(-c2c[nH]c(C(Cc3ccccc3)c3ccc(-c4cc(Cl)ccc4-n4cnnn4)c[n+]3[O-])n2)c1F (single isomer, unassigned) : 8.00

stdin: Quote Coagulation factor XI (Homo sapiens, UniProt P03951) pIC50 for entry `Nc1cc(C[C@H]2C(=O)N(C(=O)N[C@@H](c3ccccc3)C(F)(F)F)[C@@H]2C(=O)O)ccn1` .
stdout: > 8.00

* * *

Reported pIC50 against Coagulation factor XI (Homo sapiens), gathered from multiple publications, appears below.
pIC50: −log10 of the molar value.

1) COC(=O)c1ccc(NC(=O)C(CC2CC2)c2ccc(-c3c(C(F)F)ccc(Cl)c3F)c[n+]2[O-])cc1 (single isomer, unassigned) : 6.00

stdin: Fetch value of pIC50 on Coagulation factor XI (Homo sapiens) for `CC[C@@H](NC(=O)N1C(=O)[C@H](Cc2ccnc(N)c2)[C@H]1C(=O)N(C)c1ccccc1)c1ccc(OC(F)(F)F)cc1` .
stdout: 6.00 to 7.00

stdin: Find pIC50 for `CN(C(=O)[C@@H]1[C@@H](Cc2ccnc(N)c2)C(=O)N1C(=O)N[C@@H](C1CCCCC1)C1CC1)c1ccccc1` on Coagulation factor XI (Homo sapiens) and write it down.
stdout: > 8.00

stdin: Name the recorded pIC50 of CC(C)Oc1ccc(Cl)c(F)c1-c1ccc(C(CC2CC2)C(=O)Nc2ccc(C(=O)O)cc2)[n+]([O-])c1 (single isomer, unassigned) , assay system Coagulation factor XI (Homo sapiens).
stdout: < 6.00

stdin: Give Coagulation factor XI (Homo sapiens) pIC50 for the following compound: `CC[C@@H](NC(=O)N1C(=O)[C@H](Cc2ccnc(N)c2)[C@H]1C(=O)N(C)c1nccn1C)c1cc(C)ccc1C`
stdout: > 8.00

stdin: Report pIC50 from Coagulation factor XI (Homo sapiens) testing of COc1cn(C(CC2COCCO2)C(=O)Nc2ccc(C(N)=O)nc2)c(=O)cc1-c1cc(Cl)ccc1OCC(F)(F)F (stereo not drawn)
stdout: 8.49

* * *

Compiled record: IC50 values for Coagulation factor XI (Homo sapiens, UniProt P03951) across several sources.
A number alone suffices; assume nM.

1) O=C(O)c1ccc(NC(=O)C(CC2CC2)c2ccc(-c3cc(Cl)ccc3C(F)F)c[n+]2[O-])cc1 (single isomer, unassigned) : 293

stdin: // output IC50; input CC(c1cnc(N2CC3CC3C2)nc1)n1cc(NC(=O)c2cncc(-c3c(C(F)F)ccc(Cl)c3F)n2)cn1 (single isomer, unassigned) ; system Coagulation factor XI (Homo sapiens, UniProt P03951)
stdout: 1520

stdin: Provide IC50, recorded with Coagulation factor XI (Homo sapiens, UniProt P03951), of O=C1Nc2ccc(Cl)c(F)c2[C@@]2(CCCN(C(=O)c3nnc(C(CC(F)(F)F)c4cccc(Cl)c4)[nH]3)C2)O1 (single isomer, unassigned)
stdout: 4010

stdin: Give IC50 only, for N=C(N)c1cn(C(=CC(=O)N2CCCC(C(=O)O)C2)c2ccccc2)c2ccccc12 (stereo not drawn) , using Coagulation factor XI (Homo sapiens, UniProt P03951) data.
stdout: 13700

stdin: Quote IC50 with test system Coagulation factor XI (Homo sapiens, UniProt P03951) for Nc1c(C(=O)N2CCC[C@@]3(C2)OC(=O)Nc2ccc(Cl)c(F)c23)cnn1C1(C(F)(F)F)CC[C@@H]2C[C@@H]21 (single isomer, unassigned)
stdout: 932

stdin: Quote Coagulation factor XI (Homo sapiens, UniProt P03951) IC50 for entry Nc1c(C(=O)N2CCC[C@@]3(C2)OC(=O)Nc2ccc(Cl)c(F)c23)cnn1C(C1CC1)C(F)(F)F (single isomer, unassigned) .
stdout: 75

stdin: Answer with IC50 of `COC(=O)Nc1ccc(-c2cnc([C@H](Cc3ccccc3)c3ccc(-c4c(-n5cnnn5)ccc(Cl)c4F)c[n+]3[O-])[nH]2)cc1` measured for Coagulation factor XI (Homo sapiens, UniProt P03951).
stdout: 1.04

stdin: Supply IC50 measured with Coagulation factor XI (Homo sapiens, UniProt P03951) for O=C(Nc1ccc(-c2nc(=O)o[nH]2)c(F)c1)[C@@H]1CCC2CC(c3c(-n4cnnn4)ccc(Cl)c3F)=CC(=O)N21 (single isomer, unassigned) .
stdout: 0.4

stdin: Find IC50 for `Cc1nc(N2C[C@H]3C[C@H]3C2=O)ncc1Cn1cc(NC(=O)c2nc(-c3c(C(F)F)ccc(Cl)c3F)cnc2C)cn1` on Coagulation factor XI (Homo sapiens, UniProt P03951) and write it down.
stdout: 875

stdin: Enter recorded IC50 with Coagulation factor XI (Homo sapiens, UniProt P03951) for COCCC(C(=O)Nc1ccc(C(=O)O)s1)n1cc(OC)c(-c2cc(Cl)ccc2C#N)cc1=O (racemic) here.
stdout: 3

stdin: Find IC50 for `CCOC(=O)c1[nH]c2nc1-c1ccc(NC(=O)OC)cc1NC(=O)C(C)(C)CCC[C@@H]2c1ccc(-c2cc(Cl)ccc2-n2cc(C(F)(F)F)cn2)c[n+]1[O-]` on Coagulation factor XI (Homo sapiens, UniProt P03951) and write it down.
stdout: 0.97

* * *

Compiled from multiple publications: pIC50 readings for Coagulation factor XI (Homo sapiens).
pIC50: −log10 of the molar value.
Answer not satisfied if pIC50 is under 7, and satisfied if it is 7 or more.

These solved cases illustrate the format of a correct answer.
1. COc1cn(C(CC2COCCO2)C(=O)Nc2ccc(C(=O)O)cc2)c(=O)cc1-c1cc(Cl)ccc1OCC(F)F (centres unmarked) : satisfied
2. COC(=O)Nc1ccc(-c2cnc(C(CC3CC3)c3ccc(-c4cc(Cl)ccc4-n4ccnn4)c[n+]3[O-])[nH]2)cc1 (racemic) : satisfied
3. O=C1Nc2ccc(Cl)c(F)c2[C@@]2(CCCN(C(=O)c3cnn(Cc4ccnc(C(F)(F)F)c4)c3)C2)O1 : not satisfied
4. COCCOc1nn([C@@H](Cc2ccccc2)C(=O)Nc2ccc(C(=O)O)cc2)c(=O)cc1-c1cc(Cl)ccc1C(C)=O : satisfied
5. Cc1nc(C(C)n2cc(NC(=O)c3nc(-c4c(C(F)F)ccc(Cl)c4F)cnc3COC(C)(C)C)cn2)cnc1N1C[C@H]2C[C@H]2C1=O (mixture of isomers) : not satisfied
6. Nc1c(C(=O)N2CCC[C@@]3(C2)OC(=O)Nc2ccc(Cl)c(F)c23)cnn1-c1cc(F)ccc1F : not satisfied

stdin: pIC50 >= 7 for COc1nn(C(Cc2ccc(NC(=O)C3CCC3)cc2)C(=O)Nc2ccc(C(=O)O)cc2)c(=O)cc1-c1cc(Cl)ccc1C(C)=O (centres unmarked) ?
stdout: satisfied

stdin: Item CCC(C(=O)Nc1ccc(C(=O)O)cc1)n1cc2c(cc1=O)-c1cc(Cl)ccc1CNC2=O (centres unmarked) with pIC50 of 7 or above?
stdout: not satisfied

stdin: Can `CC[C@@H](NC(=O)N1C(=O)[C@H](Cc2ccnc(N)c2)[C@H]1C(=O)N(C)c1ccncc1)c1cccc(C)c1` be said to have pIC50 at or above 7?
stdout: satisfied

stdin: Determine whether measured pIC50 meets or exceeds 7 for `CC[C@@H](NC(=O)N1C(=O)[C@H](Cc2cc(C)nc(N)c2)[C@H]1C(=O)N(C)c1cnn(C)c1)c1cc(F)ccc1C`
stdout: satisfied

stdin: Hi team, for O=C(O)/C=C/c1ccc(NC(=O)[C@@H]2CCC3CC(c4c(-n5cnnn5)ccc(Cl)c4F)=CC(=O)N32)cc1 (mixture of isomers) , is the recorded pIC50 at or above 7?
stdout: satisfied
